Molecular target: T1, human GPVI-Fc fusion protein (human, UniProt Q9HCN6 21-267, limits assumed)
T1 construct: also called human GPVI protein antigen
T1 sequence (looked up): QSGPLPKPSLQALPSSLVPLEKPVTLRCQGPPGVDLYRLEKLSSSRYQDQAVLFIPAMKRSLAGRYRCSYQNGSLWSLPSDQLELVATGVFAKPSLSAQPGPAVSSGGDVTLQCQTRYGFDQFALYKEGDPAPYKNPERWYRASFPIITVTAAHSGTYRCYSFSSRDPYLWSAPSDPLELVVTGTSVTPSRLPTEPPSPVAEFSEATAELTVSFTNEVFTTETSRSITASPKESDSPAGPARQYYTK
Assay: BLI (Octet), GPVI-Fc on biosensor, 1:1 fit
Attribute measured: kon (M⁻¹ s⁻¹)

INSERT INTO measurements (binder, attribute_measured, measurement_unit, reported_result) VALUES
  ('HC5 LC2 humanized Fab (Fab, V domains shown, also called VH5:VL2) VH: QVQLQESGPGLVKPSETLSLTCTVSGFSLTSYGVTWIRQPPGKGLEWIGVIWGDGSTNYHSGLRSRVTISVDTSKNQFSLKLSSVTAADTAVYYCAKPIYYDFDDDAMDYWGQGTSVTVSS VL: DIQMTQSPSSLSASVGDRVTITCKASQNVGTYVAWFQQRPGKAPKSLIYSASYRCSGVPSKFSGSGSGTDFTLTINSLQPEDFATYYCHQYNNYPLTFGQGTKVEIKR', 'kon', 'M⁻¹ s⁻¹', 655000),
  ('HC3 LC2 humanized Fab (Fab, V domains shown, also called VH3:VL2) VH: QVQLVESGGGVVQPGRSLRLSCVASGFSLTSYGVTWVRQAPGKGLEWVAVIWGDGSTNYHSGLRSRFTISRDNSKNTMFLQMNSLRADDTAVYYCAKPIYYDFDDDAMDYWGQGTLVTVSS VL: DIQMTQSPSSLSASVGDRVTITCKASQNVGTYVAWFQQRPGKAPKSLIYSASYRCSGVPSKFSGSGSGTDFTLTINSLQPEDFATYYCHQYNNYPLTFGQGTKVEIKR', 'kon', 'M⁻¹ s⁻¹', '1.68e+06'),
  ('HC4 LC2 humanized Fab (Fab, V domains shown, also called VH4:VL2) VH: QVQLVESGGGVVQPGRSLRLSCAASGFSLTSYGVTWVRQSPGKGLEWVAVIWGDGSTNYHSGLRSRLTISRDNSKNTLYLEMNSLRTEDTATYYCAKPIYYDFDDDAMDYWGQGTKVTVSS VL: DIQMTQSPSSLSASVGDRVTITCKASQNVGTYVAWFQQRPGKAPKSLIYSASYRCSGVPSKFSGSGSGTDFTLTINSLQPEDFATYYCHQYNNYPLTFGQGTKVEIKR', 'kon', 'M⁻¹ s⁻¹', '1.29e+06'),
  ('HC2 LC2 humanized Fab (Fab, V domains shown, also called VH2:VL2; EMF602) VH: EVQLVESGPGLVKPSETLSLTCTVSGFSLTSYGVTWIRQPPGKGLEWIGVIWGDGSTNYHSGLRSRVTISVDTSKNQFSLKLSSVTAADTAVYYCAKPIYYDFDDDAMDYWGQGTLVTVSS VL: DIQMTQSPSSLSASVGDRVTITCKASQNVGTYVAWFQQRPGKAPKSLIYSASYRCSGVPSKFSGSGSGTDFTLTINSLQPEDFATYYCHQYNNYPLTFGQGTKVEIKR', 'kon', 'M⁻¹ s⁻¹', 931000),
  ('HC1 LC1 humanized Fab (Fab, V domains shown, Monovalent 50 kDa Fab from CHO; also called VH1:VL1) VH: QVQLQESGPGLVKPSETLSLTCTASGFSLTSYGVTWIRQPPGKGLEWIGVIWGDGSTNYHSGLRSRVTISVDTSKSQFSLKLSSVTAADTAVYYCAKPIYYDFDDDAMDYWGQGTLVTVSS VL: EIVLTQSPSSLSASVGDRVTITCKASQNVGTYVAWFQQKPGKAPKSLIYSASYRCSGVPSKFSGSGSGTDFTLTISSLQPEDFATYYCHQYNNYPLTFGQGTKLEIKR', 'kon', 'M⁻¹ s⁻¹', 804000),
  ('HC5 LC1 humanized Fab (Fab, V domains shown, also called VH5:VL1) VH: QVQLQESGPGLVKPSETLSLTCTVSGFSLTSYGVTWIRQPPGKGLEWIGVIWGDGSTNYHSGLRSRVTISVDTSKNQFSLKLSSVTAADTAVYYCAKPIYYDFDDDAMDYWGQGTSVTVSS VL: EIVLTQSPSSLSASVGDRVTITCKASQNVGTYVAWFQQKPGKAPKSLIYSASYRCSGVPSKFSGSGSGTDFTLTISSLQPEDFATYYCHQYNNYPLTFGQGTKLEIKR', 'kon', 'M⁻¹ s⁻¹', 782000);
